Assign pKi to each entry below.
molecular target: Thrombin (Homo sapiens, UniProt P00734); assay: Determination of inhibition constants for thrombin; format: biochemical
pKi: −log10 of the molar value.

Specify measured pKi for N=C(N)c1ccc(CNC(=O)[C@H](CCc2ccc(CN)cc2)NC(=O)[C@@H](CCc2ccc(O)cc2)NS(=O)(=O)Cc2ccccc2)cc1 . > 6.00

Specify measured pKi for CC(C)(C)OC(=O)NC[C@@H](NS(=O)(=O)Cc1ccccc1)C(=O)N[C@@H](Cc1cccc(CN)c1)C(=O)NCc1ccc(C(=N)N)cc1 . < 6.00

Specify measured pKi for N=C(N)c1ccc(CNC(=O)[C@H](CCc2ccccc2)NC(=O)[C@@H](CCCc2ccc[n+]([O-])c2)NS(=O)(=O)Cc2cccc(C(=O)O)c2)cc1 . > 6.00

Specify measured pKi for N=C(N)c1ccc(CNC(=O)[C@H](Cc2cccc(CN)c2)NC(=O)[C@@H](CCCc2ccc(C(F)(F)F)cc2)NS(=O)(=O)Cc2ccccc2)cc1 . > 6.00

Specify measured pKi for N=C(N)c1ccc(CNC(=O)[C@H](Cc2ccc(CN)cc2)NC(=O)[C@@H](CCCc2ccccc2)NS(=O)(=O)Cc2ccc(C(=O)O)cc2)cc1 . > 6.00

Specify measured pKi for N=C(N)c1ccc(CNC(=O)[C@H](Cc2cccc(CN)c2)NC(=O)[C@@H](Cc2ccc3ccccc3c2)NS(=O)(=O)Cc2cccc(C(=O)O)c2)cc1 . < 6.00

* * *

target: Thrombin (Homo sapiens, UniProt P00734); assay: Determination of inhibition constants for thrombin; assay type: biochemical
pKi: −log10 of the molar value.
Assign pKi to each entry below.

Specify measured pKi for N=C(N)c1ccc(CNC(=O)[C@H](CCc2ccncc2)NC(=O)[C@@H](CCCc2ccccc2)NS(=O)(=O)Cc2ccccc2)cc1 [compound 39] . > 8.00

Specify measured pKi for CC(C)(C)OC(=O)NCCCC[C@@H](NS(=O)(=O)Cc1ccccc1)C(=O)N[C@@H](Cc1cccc(CN)c1)C(=O)NCc1ccc(C(=N)N)cc1 [compound 57] . < 6.00

Specify measured pKi for N=C(N)c1ccc(CNC(=O)[C@H](CCc2cccc(CN)c2)NC(=O)[C@@H](CO)NS(=O)(=O)Cc2ccccc2)cc1 [compound 74] . < 6.00

* * *

target: plasma kallikrein (Homo sapiens); test: Determination of inhibition constants for PK; format: biochemical; set-up: purchased Enzyme Research Lab. / Enzyme Research Laboratories; conditions: 25° C., substrate S2302, pH 8.0; read-out: PK [Ki]
Sequence (P03952 391-638 limits assumed): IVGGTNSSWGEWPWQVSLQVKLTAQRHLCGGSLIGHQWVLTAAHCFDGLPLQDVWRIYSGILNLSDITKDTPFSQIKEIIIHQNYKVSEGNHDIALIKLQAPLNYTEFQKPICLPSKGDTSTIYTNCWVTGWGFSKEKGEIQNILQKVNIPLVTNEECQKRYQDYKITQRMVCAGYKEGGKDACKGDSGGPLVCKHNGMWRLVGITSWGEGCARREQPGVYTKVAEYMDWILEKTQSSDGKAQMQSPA
Sequence (P03952 20-390 partner limits assumed): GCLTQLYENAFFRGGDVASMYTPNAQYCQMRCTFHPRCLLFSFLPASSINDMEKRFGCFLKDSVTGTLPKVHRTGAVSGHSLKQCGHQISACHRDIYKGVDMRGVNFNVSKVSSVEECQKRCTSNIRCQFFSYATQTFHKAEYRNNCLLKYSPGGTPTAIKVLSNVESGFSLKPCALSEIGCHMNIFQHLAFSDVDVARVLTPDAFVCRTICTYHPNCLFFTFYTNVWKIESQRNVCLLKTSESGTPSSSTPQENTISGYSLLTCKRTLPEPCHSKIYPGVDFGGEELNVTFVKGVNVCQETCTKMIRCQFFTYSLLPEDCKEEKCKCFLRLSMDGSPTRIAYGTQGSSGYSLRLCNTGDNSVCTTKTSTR
pKi: −log10 of the molar value.
Assign pKi to each entry below.

Write pKi of N=C(N)c1ccc(CNC(=O)[C@H](CCc2cc[n+]([O-])cc2)NC(=O)[C@@H](CCCc2ccccc2)NS(=O)(=O)Cc2ccccc2)cc1 ; system used: plasma kallikrein (Homo sapiens) > 8.00

Write pKi of N=C(N)c1ccc(CNC(=O)[C@H](CCc2ccccc2)NC(=O)[C@@H](CCCc2ccncc2)NS(=O)(=O)Cc2cccc(C(=O)O)c2)cc1 ; system used: plasma kallikrein (Homo sapiens) > 8.00

Write pKi of N=C(N)c1ccc(CNC(=O)[C@H](Cc2cccc(CN)c2)NC(=O)[C@@H](Cc2ccc3ccccc3c2)NS(=O)(=O)Cc2ccc(C(=O)O)cc2)cc1 ; system used: plasma kallikrein (Homo sapiens) > 8.00

Write pKi of N=C(N)Nc1ccc(CNC(=O)[C@H](Cc2cccc(CN)c2)NC(=O)[C@@H](CCCc2ccccc2)NS(=O)(=O)Cc2cccc(C(=O)O)c2)cc1 ; system used: plasma kallikrein (Homo sapiens) > 8.00

Write pKi of N=C(N)c1ccc(CNC(=O)[C@H](CCc2ccccc2)NC(=O)[C@@H](CCCc2ccncc2)NS(=O)(=O)Cc2ccccc2)cc1 ; system used: plasma kallikrein (Homo sapiens) > 8.00

Write pKi of N=C(N)c1ccc(CNC(=O)[C@H](Cc2cccc(CN)c2)NC(=O)[C@@H](CCc2ccc(O)cc2)NS(=O)(=O)Cc2ccccc2)cc1 ; system used: plasma kallikrein (Homo sapiens) > 8.00

Write pKi of N=C(N)c1ccc(CNC(=O)[C@H](Cc2cccc(CN)c2)NC(=O)[C@@H](Cc2ccc3ccccc3c2)NS(=O)(=O)Cc2cccc(C(=O)O)c2)cc1 ; system used: plasma kallikrein (Homo sapiens) > 8.00

Write pKi of CC(C)(C)OC(=O)NCCCC[C@@H](NS(=O)(=O)Cc1ccccc1)C(=O)N[C@@H](Cc1cccc(CN)c1)C(=O)NCc1ccc(C(=N)N)cc1 ; system used: plasma kallikrein (Homo sapiens) > 8.00

Write pKi of N=C(N)c1ccc(CC[C@H](NC(=O)[C@@H](CC2CCCCC2)NS(=O)(=O)Cc2ccccc2)C(=O)NCc2ccc(C(=N)N)cc2)cc1 ; system used: plasma kallikrein (Homo sapiens) > 7.00

Write pKi of N=C(N)c1ccc(CNC(=O)[C@H](Cc2cccc(CN)c2)NC(=O)[C@@H](CO)NS(=O)(=O)Cc2ccccc2)cc1 [compound 68] ; system used: plasma kallikrein (Homo sapiens) > 8.00

Write pKi of COC(=O)c1cccc(CS(=O)(=O)N[C@H](COC(C)(C)C)C(=O)N[C@@H](Cc2cccc(CN)c2)C(=O)NCc2ccc(C(=N)N)cc2)c1 ; system used: plasma kallikrein (Homo sapiens) > 8.00

Write pKi of N=C(N)c1ccc(CNC(=O)[C@H](CCc2ccc(CN)cc2)NC(=O)[C@@H](CC2CCCCC2)NS(=O)(=O)Cc2ccccc2)cc1 ; system used: plasma kallikrein (Homo sapiens) > 7.00

Cited source for all entries: patent US8410310B2
